What pIC50 was measured for each of the following?
Test system: triple-exon skipping of MDM2 pre-mRNA in SK-MEL-2/Luc-MDM2 cells
Experiment: TESLR (Triple Exon Skipping Luciferase Reporter) dose response
Details: Homo sapiens, SK-MEL-2, 4 h, read-out: TESLR IC50 in inducing triple exon skipping
pIC50: −log10 of the molar value.

Any idea what pIC50 was measured for CC(=O)c1c(C)c2cnc(Nc3ccc(N4CCNCC4)cn3)nc2n(C2CCCC2)c1=O [palbociclib] ?
3.52 to 5.00

Given the compound CC(C)(C)c1cnc(CSc2cnc(NC(=O)C3CCNCC3)s2)o1 [SNS-032] , what is its reported pIC50?
< 5.00

Give its pIC50 value. Item: O=C(O)c1ccc2c(c1)nc(Nc1cccc(Cl)c1)c1ccncc12 [silmitasertib]
3.52 to 5.00

Reported pIC50 for CN1CC[C@H](c2c(O)cc(O)c3c(=O)cc(-c4ccccc4Cl)oc23)[C@H](O)C1 [flavopiridol] : what is it?
< 5.00

---

Values of IC50 reported for UniProt:P49759 appear below.
Sequence (P49759 whole entry): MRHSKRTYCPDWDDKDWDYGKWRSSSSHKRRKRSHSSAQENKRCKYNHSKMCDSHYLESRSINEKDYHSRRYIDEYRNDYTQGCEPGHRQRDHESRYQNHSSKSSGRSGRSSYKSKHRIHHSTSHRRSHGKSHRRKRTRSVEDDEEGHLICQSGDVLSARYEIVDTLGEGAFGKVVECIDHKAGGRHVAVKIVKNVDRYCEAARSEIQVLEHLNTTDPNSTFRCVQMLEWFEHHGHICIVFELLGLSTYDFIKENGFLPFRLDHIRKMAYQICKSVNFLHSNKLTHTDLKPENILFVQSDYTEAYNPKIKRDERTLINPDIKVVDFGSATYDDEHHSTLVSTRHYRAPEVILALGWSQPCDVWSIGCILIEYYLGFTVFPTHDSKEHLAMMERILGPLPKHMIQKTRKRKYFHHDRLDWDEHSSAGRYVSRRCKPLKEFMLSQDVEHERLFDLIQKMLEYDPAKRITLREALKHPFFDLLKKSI
Give the value, in units of nM, as a plain number.

Using the record for CNC(=O)c1nn(C)c2c1C(C)(C)Cc1cnc(Nc3ccc(N4CCN(C)CC4)cc3)nc1-2 , report its IC50.
3

Bench note: what IC50 did Cc1nc(Nc2[nH]nc3c2CN(C(=O)N[C@H](CN(C)C)c2ccccc2)C3(C)C)c2sccc2n1 show?
27

Would you mind telling me what IC50 value was observed for CN(c1ncccc1CNc1nc(Nc2ccc3c(c2)CC(=O)N3)ncc1C(F)(F)F)S(C)(=O)=O ?
141

---

CLK3(h) (Homo sapiens) pIC50 data
Sequence (P49761 whole entry): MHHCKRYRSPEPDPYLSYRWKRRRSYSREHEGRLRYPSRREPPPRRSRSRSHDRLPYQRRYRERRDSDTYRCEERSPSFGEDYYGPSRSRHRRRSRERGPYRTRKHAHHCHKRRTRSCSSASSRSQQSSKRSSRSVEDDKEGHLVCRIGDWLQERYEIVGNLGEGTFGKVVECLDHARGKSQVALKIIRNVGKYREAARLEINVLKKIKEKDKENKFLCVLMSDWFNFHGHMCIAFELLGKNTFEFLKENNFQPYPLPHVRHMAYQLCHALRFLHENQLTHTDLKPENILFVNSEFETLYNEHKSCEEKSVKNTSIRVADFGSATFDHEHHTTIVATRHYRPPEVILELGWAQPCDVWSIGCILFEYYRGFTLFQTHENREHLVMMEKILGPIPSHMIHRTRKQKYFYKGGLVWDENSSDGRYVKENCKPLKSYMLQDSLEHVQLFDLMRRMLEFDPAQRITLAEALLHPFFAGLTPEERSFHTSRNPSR
Would you please state pIC50, meaning minus log10 of the concentration in mol/L, as a bare number?

Given the entry CNC(=O)c1nn(C)c2c1C(C)(C)Cc1cnc(Nc3ccc(N4CCN(C)CC4)cc3)nc1-2 , report its measured pIC50.
6.37

Return reported pIC50; argument: Cc1nc(Nc2[nH]nc3c2CN(C(=O)N[C@H](CN(C)C)c2ccccc2)C3(C)C)c2sccc2n1
6.31

---

Biological target: CDK2/cyclinA (h) (Homo sapiens, UniProt P24941)
Experiment: Radiometric protein kinase assay (Eurofins)
Settings: ATP 45 μM
endpoint name: IC50 (nM)
// note: answer is a bare numeric in nM

Give the measured IC50 of CN(c1ncccc1CNc1nc(Nc2ccc3c(c2)CC(=O)N3)ncc1C(F)(F)F)S(C)(=O)=O .
203

---

Test system: triple-exon skipping of MDM2 pre-mRNA in SK-MEL-2/Luc-MDM2 cells
Test: TESLR (Triple Exon Skipping Luciferase Reporter) dose response
Conditions: Homo sapiens, SK-MEL-2, 4 h, read-out: TESLR IC50 (as printed in Fig 5)
endpoint name: IC50

What IC50 appears in the records for this molecule with triple-exon skipping of MDM2 pre-mRNA in SK-MEL-2/Luc-MDM2 cells? CC(=O)c1c(C)c2cnc(Nc3ccc(N4CCNCC4)cn3)nc2n(C2CCCC2)c1=O
~291 µM

---

Biological target: UniProt Q9Y243
Sequence (Q9Y243 whole entry): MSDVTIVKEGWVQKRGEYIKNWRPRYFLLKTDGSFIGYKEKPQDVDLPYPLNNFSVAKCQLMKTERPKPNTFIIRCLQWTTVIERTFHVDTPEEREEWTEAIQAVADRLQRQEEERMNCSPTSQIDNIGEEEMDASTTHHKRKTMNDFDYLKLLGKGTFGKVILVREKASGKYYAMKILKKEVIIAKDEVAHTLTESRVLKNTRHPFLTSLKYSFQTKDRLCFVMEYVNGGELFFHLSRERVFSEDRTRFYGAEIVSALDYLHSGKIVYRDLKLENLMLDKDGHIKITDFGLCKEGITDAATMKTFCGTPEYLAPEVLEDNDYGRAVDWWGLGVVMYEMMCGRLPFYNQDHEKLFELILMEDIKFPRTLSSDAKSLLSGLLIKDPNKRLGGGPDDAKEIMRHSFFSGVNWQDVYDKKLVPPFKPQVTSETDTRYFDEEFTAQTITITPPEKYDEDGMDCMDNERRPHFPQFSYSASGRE
endpoint name: pIC50
// pIC50: -log10(molar conc.)

Lab note: need pIC50 with UniProt Q9Y243 for entry Cc1nc(Nc2[nH]nc3c2CN(C(=O)N[C@H](CN(C)C)c2ccccc2)C3(C)C)c2sccc2n1 , please look it up.
7.27

---

Reported IC50 values, CLK4(h) (Homo sapiens).
Just the number please, in nM, no unit attached.

Lookup: IC50 / CLK4(h) (Homo sapiens) / CNC(=O)c1nn(C)c2c1C(C)(C)Cc1cnc(Nc3ccc(N4CCN(C)CC4)cc3)nc1-2
13

Recorded IC50 for CN(c1ncccc1CNc1nc(Nc2ccc3c(c2)CC(=O)N3)ncc1C(F)(F)F)S(C)(=O)=O with CLK4(h) (Homo sapiens), please?
155

Form field: IC50 recorded for Cc1nc(Nc2[nH]nc3c2CN(C(=O)N[C@H](CN(C)C)c2ccccc2)C3(C)C)c2sccc2n1 with CLK4(h) (Homo sapiens) (enter value)
48

---

Target chain: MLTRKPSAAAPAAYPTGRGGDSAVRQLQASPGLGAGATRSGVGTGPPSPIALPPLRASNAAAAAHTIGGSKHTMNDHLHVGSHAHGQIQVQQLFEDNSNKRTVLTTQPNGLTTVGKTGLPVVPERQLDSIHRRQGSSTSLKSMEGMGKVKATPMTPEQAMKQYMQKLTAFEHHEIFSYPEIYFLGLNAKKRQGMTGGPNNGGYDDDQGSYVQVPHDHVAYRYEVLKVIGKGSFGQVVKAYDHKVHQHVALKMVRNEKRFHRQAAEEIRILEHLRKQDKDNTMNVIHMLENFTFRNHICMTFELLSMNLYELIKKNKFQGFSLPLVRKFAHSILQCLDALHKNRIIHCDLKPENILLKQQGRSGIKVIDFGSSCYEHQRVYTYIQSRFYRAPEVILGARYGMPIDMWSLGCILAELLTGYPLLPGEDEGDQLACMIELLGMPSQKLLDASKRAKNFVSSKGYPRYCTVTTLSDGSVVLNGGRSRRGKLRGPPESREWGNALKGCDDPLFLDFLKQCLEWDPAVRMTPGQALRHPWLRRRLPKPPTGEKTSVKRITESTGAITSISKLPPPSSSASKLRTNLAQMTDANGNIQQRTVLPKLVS
endpoint name: pIC50
Keep it numeric: pIC50 is minus log10 of the concentration in mol/L.

# query: pIC50 of entry CNC(=O)c1nn(C)c2c1C(C)(C)Cc1cnc(Nc3ccc(N4CCN(C)CC4)cc3)nc1-2 [Compound 1, milciclib]
7.32

---

endpoint name: IC50 (nM)
Supply the numeric figure in nM, leaving out any unit text.

Entry Cc1nc(Nc2[nH]nc3c2CN(C(=O)N[C@H](CN(C)C)c2ccccc2)C3(C)C)c2sccc2n1 , system UniProtKB Q96SB4: what IC50 was measured?
170

---

Test system: triple-exon skipping of MDM2 pre-mRNA in SK-MEL-2/Luc-MDM2 cells
Assay: TESLR (Triple Exon Skipping Luciferase Reporter) dose response
Conditions: Homo sapiens, SK-MEL-2, 4 h, read-out: TESLR EC50
endpoint name: EC50 (µM)
Entry rule: numbers only, all in µM.

Reported EC50, compound O=C(O)c1ccc2c(c1)nc(Nc1cccc(Cl)c1)c1ccncc12 [silmitasertib] : ____
19.9

What EC50 value was documented for this compound, CNC(=O)c1nn(C)c2c1C(C)(C)Cc1cnc(Nc3ccc(N4CCN(C)CC4)cc3)nc1-2 [Compound 1, milciclib] ?
9.19

Recorded EC50 for CNC(=O)OC(C)C=CC(=O)NC1CCC(CC=C(C)C=CC2CC3(CO3)CC(C)(C)O2)CC1 (stereo not shown) [SD6, sudemycin D6] , please?
0.862

Return reported EC50; argument: Cc1nc(Nc2[nH]nc3c2CN(C(=O)N[C@H](CN(C)C)c2ccccc2)C3(C)C)c2sccc2n1 [Compound 2, PF-3758309]
3.44

---

Target: CK2α2 (h) (Homo sapiens)
Construct: purchased Eurofins, Dundee, Scotland
Sequence (P19784 whole entry): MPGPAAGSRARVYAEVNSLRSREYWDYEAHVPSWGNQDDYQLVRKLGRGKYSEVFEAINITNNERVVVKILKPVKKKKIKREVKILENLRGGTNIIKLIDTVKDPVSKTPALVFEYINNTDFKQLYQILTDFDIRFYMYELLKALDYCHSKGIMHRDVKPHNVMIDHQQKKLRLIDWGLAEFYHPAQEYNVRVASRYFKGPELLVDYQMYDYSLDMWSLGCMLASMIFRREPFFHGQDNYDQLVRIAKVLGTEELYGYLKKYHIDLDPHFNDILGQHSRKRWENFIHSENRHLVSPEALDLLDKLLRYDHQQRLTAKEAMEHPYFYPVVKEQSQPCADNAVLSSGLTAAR
Assay: Radiometric protein kinase assay (Eurofins)
Type: biochemical
Conditions: ATP 10 μM; read-out: CK2a2 IC50
endpoint name: IC50 (nM)
Write the value in nM as a bare number.

Query IC50 on CK2α2 (h) (Homo sapiens) for CN(c1ncccc1CNc1nc(Nc2ccc3c(c2)CC(=O)N3)ncc1C(F)(F)F)S(C)(=O)=O [Compound 3, PF-562271]
374

---

Molecular target: SF3B1 (Homo sapiens, UniProt O75533+Q7RTV0)
Construct: endogenous in cells
Assay: Competitive antagonist assay (TESLR in the presence of SD6 or hit compound)
Conditions: 1 h pre-treatment with analog, then 4 μM SD6 for another 4 hours; read-out: IC50 for antagonism of SD6 activity in the TESLR assay
endpoint name: IC50 (µM)
Provide only the numeric value, understood in µM.

For the record CC(C=CC1CC2(CO2)CC(C)(C)O1)=CCC1CCC(NC(=O)C=CC(C)O)CC1 (centres unmarked) , what value of IC50 is listed for SF3B1 (Homo sapiens, UniProt O75533+Q7RTV0)?
0.97

Any idea what IC50 came out for CC(C=CC1CC2(CO2)CC(C)(C)O1)=CCC1OCC(NC(=O)C=CC(C)O)CO1 (centres unmarked) on SF3B1 (Homo sapiens, UniProt O75533+Q7RTV0)?
16.1

---

endpoint name: IC50 (µM)
Provide the reading as a plain figure in µM.

What measured IC50 is associated with CNC(=O)c1nn(C)c2c1C(C)(C)Cc1cnc(Nc3ccc(N4CCN(C)CC4)cc3)nc1-2 on DYRK1A(h) (Homo sapiens)?
0.017
